Quick reference for inhibition at 10 µM among some compounds
- System: OVCAR-3
- Assay comment: NCI-60 SRB screen
- Format: cell-based
- Condition summary: Homo sapiens; OVCAR-3, 10^–5 Molar; read-out: Percent growth inhibition
Report as a plain number; the unit % is understood.

Here's what some known entries look like.
CCn1cc(C(=O)O)c(=O)c2cc(F)c(N3CCN(C(=O)c4ccccc4)C(C)C3)c(F)c21 (stereo not drawn) :: 3.69
CCn1cc(C(=O)NN=Cc2ccccc2)c(=O)c2cc(F)c(N3CCNC(C)C3)c(F)c21 (stereo not drawn) :: 175
CCn1cc(C(=O)NN=Cc2ccc(Br)cc2)c(=O)c2cc(F)c(N3CCNC(C)C3)c(F)c21 (stereo not drawn) :: 47.1
CCn1cc(C(=O)NN=Cc2cccs2)c(=O)c2cc(F)c(N3CCNC(C)C3)c(F)c21 (stereo not drawn) :: 31.3
CCn1cc(C(=O)NN=Cc2cccnc2)c(=O)c2cc(F)c(N3CCNC(C)C3)c(F)c21 (stereo not drawn) :: 59.8

Please turn your attention to the following entry.
Hey, OVCAR-3 data for CCn1cc(C(=O)NN=Cc2cccc(F)c2)c(=O)c2cc(F)c(N3CCNC(C)C3)c(F)c21 (stereo not drawn) : inhibition at 10 µM came out at 183
